Test: Vacuolar accumulation ratio of the compound at pH 5.2
Format: ADME
# Ratio >= 2000 gives fulfilled, anything below gives not fulfilled

structure-notation | category
Cc1ccc(-c2cc(CN3CCCC3)c(C)n2Nc2ccnc3cc(Cl)ccc23)cc1 | not fulfilled
Cc1c(CN2CCCC2)cc(-c2ccc(F)cc2)n1Nc1ccnc2cc(Cl)ccc12 | not fulfilled
Cc1c(CN2CCCC2)cc(-c2ccc(Cl)cc2)n1Nc1ccnc2cc(Cl)ccc12 | not fulfilled
Cc1c(CN2CCCC2)cc(-c2ccc(Cl)cc2)n1CCCNc1ccnc2cc(Cl)ccc12 | fulfilled
Cc1c(CN2CCCC2)cc(-c2ccc(C(F)(F)F)cc2)n1Nc1ccnc2cc(Cl)ccc12 | not fulfilled
Cc1c(CN2CCCC2)cc(-c2ccccc2)n1Nc1ccnc2cc(Cl)ccc12 | not fulfilled
Cc1c(CN2CCCC2)cc(-c2ccc(N)cc2)n1Nc1ccnc2cc(Cl)ccc12 | fulfilled

----------
Test: Octanol-water partition coefficient, log P of the compound
Assay type: physicochemical
// rule not met strictly below 5 in logP; rule met otherwise

structure-notation | category
Cc1c(CN2CCCC2)cc(-c2ccc(Cl)cc2)n1Nc1ccnc2cc(Cl)ccc12 | rule met
Cc1c(CN2CCCC2)cc(-c2ccccc2)n1Nc1ccnc2cc(Cl)ccc12 | rule not met
Cc1c(CN2CCCC2)cc(-c2ccc(N)cc2)n1Nc1ccnc2cc(Cl)ccc12 | rule not met
Cc1ccc(-c2cc(CN3CCCC3)c(C)n2Nc2ccnc3cc(Cl)ccc23)cc1 | rule met
Cc1c(CN2CCCC2)cc(-c2ccc(Cl)cc2)n1CCCNc1ccnc2cc(Cl)ccc12 | rule not met
Cc1c(CN2CCCC2)cc(-c2ccc(C(F)(F)F)cc2)n1Nc1ccnc2cc(Cl)ccc12 | rule met

----------
Experiment: Inhibition of beta-hematin formation assessed as molar equivalents by BHIA assay relative to hemin
Type: functional

compound | value-unit | IC50
Cc1ccc(-c2cc(CN3CCCC3)c(C)n2Nc2ccnc3cc(Cl)ccc23)cc1 | equivalents | 0.45
Cc1c(CN2CCCC2)cc(-c2ccc(Cl)cc2)n1CCCNc1ccnc2cc(Cl)ccc12 | equivalents | 0.82
Cc1c(CN2CCCC2)cc(-c2ccccc2)n1Nc1ccnc2cc(Cl)ccc12 | equivalents | 0.54
Cc1c(CN2CCCC2)cc(-c2ccc(Cl)cc2)n1Nc1ccnc2cc(Cl)ccc12 | equivalents | 0.36
CCN(CC)CCCC(C)Nc1ccnc2cc(Cl)ccc12 (stereo not given) [CHLOROQUINE] | equivalents | 1.27

----------
Here the recorded CC50 at 72 h is given for each entry.
Assay: Cytotoxicity against human K562 cells after 72 hrs by MTT assay
Format: cell-based
readout-label: CC50 at 72 h (nM)

compound | value-unit | relation-operator | quantitative-readout
CCN(CC)Cc1cc(-c2ccccc2)n(Nc2ccnc3cc(Cl)ccc23)c1C | nM | = | 3620
Cc1c(CN2CCCC2)cc(-c2ccccc2)n1Nc1ccnc2cc(Cl)ccc12 | nM | = | 2920
Cc1c(CN2CCCC2)cc(-c2ccc(F)cc2)n1Nc1ccnc2cc(Cl)ccc12 | nM | = | 1660
Cc1c(CN2CCCC2)cc(-c2ccc(C(F)(F)F)cc2)n1Nc1ccnc2cc(Cl)ccc12 | nM | = | 1220
CCN(CC)CCCC(C)Nc1ccnc2cc(Cl)ccc12 (stereo unspecified) | nM | > | 25000
CCN(CC)Cc1cc(-c2ccc(F)cc2)n(Nc2ccnc3cc(Cl)ccc23)c1C | nM | = | 2360
